# target_under_test: full-length beta-Catenin (Uniprot ID P35222) (Homo sapiens)
# Construct: 10 nM full-length beta-Catenin (Uniprot ID P35222)
# Sequence (P35222 whole entry): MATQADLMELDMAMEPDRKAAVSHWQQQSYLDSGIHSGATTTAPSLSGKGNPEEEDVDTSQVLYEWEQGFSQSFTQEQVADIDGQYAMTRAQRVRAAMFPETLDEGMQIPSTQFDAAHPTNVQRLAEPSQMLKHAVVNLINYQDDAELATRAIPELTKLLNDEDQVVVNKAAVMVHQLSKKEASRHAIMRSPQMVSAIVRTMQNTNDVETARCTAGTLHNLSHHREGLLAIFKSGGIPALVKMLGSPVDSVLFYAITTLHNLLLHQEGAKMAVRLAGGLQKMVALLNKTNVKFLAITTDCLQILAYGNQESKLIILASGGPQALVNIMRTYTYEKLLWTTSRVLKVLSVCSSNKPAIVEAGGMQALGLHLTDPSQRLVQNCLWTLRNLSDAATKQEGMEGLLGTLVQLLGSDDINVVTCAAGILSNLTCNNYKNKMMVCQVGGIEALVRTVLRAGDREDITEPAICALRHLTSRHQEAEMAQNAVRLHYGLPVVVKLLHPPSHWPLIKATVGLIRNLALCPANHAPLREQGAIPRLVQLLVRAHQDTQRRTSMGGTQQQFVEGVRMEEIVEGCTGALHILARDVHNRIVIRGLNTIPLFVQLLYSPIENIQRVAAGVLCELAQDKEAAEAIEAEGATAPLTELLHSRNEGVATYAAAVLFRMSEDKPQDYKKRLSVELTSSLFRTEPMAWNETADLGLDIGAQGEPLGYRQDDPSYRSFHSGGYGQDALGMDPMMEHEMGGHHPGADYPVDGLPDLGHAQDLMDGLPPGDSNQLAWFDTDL
# method_notes: Fluorescence polarization IC50 (beta-catenin / 5FAM-TCF4 10-53 competition)
# Type: binding
# assay_setup: fluorescence polarization; read-out: beta-Catenin FP IC50
Provide the recorded pIC50 for the entries that follow.
Please express pIC50 as -log10 of the molar concentration.

So what's the measured pIC50 for this one? CC(=O)N1CCC[C@]12CC=CCCCC1(CCCC=CCCCOC(=O)N3CC[C@@](C(=O)N[C@@H](Cc4ccsc4)C(=O)N[C@@H](Cc4csc5ccccc45)C(=O)N[C@@H](CCC(N)=O)C(N)=O)(C3)NC(=O)[C@H](CC(N)=O)NC(=O)[C@H](Cc3cccc(C(=O)O)c3)NC(=O)[C@H](C)NC(=O)[C@H](C)NC(=O)[C@H](CCc3ccc(O)cc3)NC(=O)[C@H](CC(=O)O)NC1=O)NC(=O)[C@H](CC(C)(C)C)NC(=O)[C@H](CC(=O)O)NC2=O (some centres unmarked) [I-2115]
7.54

So what's the measured pIC50 for this one? CC(=O)N1CCC[C@]12CC=CCCCC1(CCCC=CCCCOC(=O)N3CC[C@@](C(=O)N[C@@H](Cc4ccsc4)C(=O)N[C@@H](Cc4csc5ccccc45)C(=O)N[C@@H](CC(N)=O)C(=O)N[C@@H](CC(C)C)C(=O)N[C@@H](CC(C)C)C(=O)N[C@@H](CC(C)C)C(N)=O)(C3)NC(=O)[C@H](CC(C)C)NC(=O)[C@H](Cc3ccccc3)NC(=O)[C@H](C)NC(=O)[C@H](C)NC(=O)[C@H](Cc3cccc(C(=O)O)c3)NC(=O)[C@H](CC(=O)O)NC1=O)NC(=O)[C@H](CC(C)(C)C)NC(=O)[C@H](CC(=O)O)NC2=O (some centres unmarked) [I-2276]
6.80

* * *

# System: COLO320DM cells
# Assay type: cell-based
# assay_setup: COLO320DM cells, absolute IC50; read-out: COLO320DM Proliferation Abs IC50
Provide the recorded pIC50 for the entries that follow.
Please express pIC50 as -log10 of the molar concentration.

So what's the measured pIC50 for this one? CC(=O)N1CCC[C@]12CC=CCCCC1(CCCC=CCCCOC(=O)N3CC[C@@](C(=O)N[C@@H](Cc4ccsc4)C(=O)N[C@@H](Cc4csc5ccccc45)C(=O)N[C@@H](CC(N)=O)C(=O)N[C@@H](CC(C)C)C(N)=O)(C3)NC(=O)[C@H](CC(C)C)NC(=O)[C@H](Cc3ccccc3)NC(=O)[C@H](C)NC(=O)[C@H](C)NC(=O)[C@H](Cc3cccc(C(=O)O)c3)NC(=O)[C@H](CC(=O)O)NC1=O)NC(=O)[C@H](CC(C)(C)C)NC(=O)[C@H](CC(=O)O)NC2=O (some centres unmarked)
5.21

So what's the measured pIC50 for this one? CC[C@@H]1NC(=O)[C@H](Cc2ccccc2)NC(=O)[C@H](C)NC(=O)C(C)(C)NC(=O)[C@H](Cc2cccc(C(=O)O)c2)NC(=O)[C@H](CC(=O)O)NC(=O)C2(CCCC=CCCCOC(=O)N3CC[C@@](C(=O)N[C@@H](Cc4ccsc4)C(=O)N[C@@H](Cc4csc5ccccc45)C(=O)N[C@@H](CCC(=O)N(C)C)C(=O)N[C@@H](C)C(N)=O)(C3)NC1=O)CCCC=CC[C@]1(CCCN1C(C)=O)C(=O)N[C@@H](CC(=O)O)C(=O)N[C@@H](CC(C)(C)C)C(=O)N2 (some centres unmarked)
5.25

* * *

# target_under_test: full-length beta-Catenin (Uniprot ID P35222) (Homo sapiens)
# Construct: 10 nM full-length beta-Catenin (Uniprot ID P35222)
# method_notes: Fluorescence polarization IC50 (beta-catenin / 5FAM-TCF4 10-53 competition)
# Type: binding
# assay_setup: fluorescence polarization; read-out: beta-Catenin FP IC50
Provide the recorded IC50 for the entries that follow.
Give the number; nM is assumed, so skip it.

Lab request: please report IC50 under test system full-length beta-Catenin (Uniprot ID P35222) (Homo sapiens) for CO[C@H](C)[C@@H]1NC(=O)[C@H](CC(=O)O)NC(=O)[C@]2(CC=CCCCC3(CCCC=CCCCCCC[C@@](C)(C(=O)N[C@@H](Cc4ccccc4)C(=O)N[C@@H](Cc4csc5ccccc45)C(=O)N[C@@H](CCC(N)=O)C(N)=O)NC(=O)[C@H](CCC(N)=O)NC(=O)[C@H](Cc4ccccc4)NC(=O)[C@H](C)NC(=O)[C@H](C)NC(=O)[C@H](CCC(=O)O)NC(=O)[C@H](CC(=O)O)NC3=O)NC1=O)CCCN2C(C)=O (some centres unmarked) [I-541]
180

Lab request: please report IC50 under test system full-length beta-Catenin (Uniprot ID P35222) (Homo sapiens) for CC(=O)N1CCC[C@]12CC=CCCCC1(CCCC=CCCCOC(=O)N3CC[C@@](C(=O)N[C@@H](Cc4ccsc4)C(=O)N[C@@H](Cc4csc5ccccc45)C(=O)N[C@@H](CCC(N)=O)C(N)=O)(C3)NC(=O)[C@H](CC(C)C)NC(=O)[C@H](Cc3ccccc3)NC(=O)[C@H](C)NC(=O)[C@H](C)NC(=O)[C@H](CCN(CC(=O)O)C(=O)c3c(F)c(F)c(F)c(F)c3F)NC(=O)[C@H](CC(=O)O)NC1=O)NC(=O)[C@H](CC(C)(C)C)NC(=O)[C@H](CC(=O)O)NC2=O (some centres unmarked)
31

* * *

# target_under_test: beta-catenin/TCF4 engagement (Homo sapiens)
# Construct: expressed in transfected cells; host or cells: HEK293
# method_notes: Nano-BRET target engagement assay (B-cat-Halo & TCF4-Luc in HEK293 cells)
# Format: cell-based
# assay_setup: HEK293, @ 10 uM; read-out: NanoBRET % inh @ 10 uM
quantity_name: inhibition at 10 µM (%)
Give the number; % is assumed, so skip it.

Lab request: please report inhibition at 10 µM under test system beta-catenin/TCF4 engagement (Homo sapiens) for CC[C@H](C)[C@@H]1NC(=O)[C@H](CC(=O)O)NC(=O)[C@]2(CC=CCCCC3(CCCC=CCCCCCC[C@@](C)(C(=O)N[C@@H](Cc4ccccc4)C(=O)N[C@@H](Cc4csc5ccccc45)C(=O)N[C@@H](CCC(N)=O)C(N)=O)NC(=O)[C@H](CCC(N)=O)NC(=O)[C@H](Cc4ccccc4)NC(=O)[C@H](C)NC(=O)[C@H](C)NC(=O)[C@H](CCC(=O)O)NC(=O)[C@H](CC(=O)O)NC3=O)NC1=O)CCCN2C(C)=O (stereo partly shown)
55.1

* * *

# target_under_test: beta-catenin/TCF4 engagement (Homo sapiens, UniProt P35222)
# Construct: expressed in transfected cells; host or cells: HEK293
# Sequence (P35222 whole entry): as above
# method_notes: Nano-BRET target engagement assay (B-cat-Halo & TCF4-Luc in HEK293 cells)
# Assay type: cell-based
# assay_setup: read-out: NanoBRET Abs IC50
Provide the recorded pIC50 for the entries that follow.
Please express pIC50 as -log10 of the molar concentration.

Lab request: please report pIC50 under test system beta-catenin/TCF4 engagement (Homo sapiens, UniProt P35222) for CC(=O)N1CCC[C@]12CC=CCCCC1(CCCC=CCCCOC(=O)N3CC[C@@](C(=O)N[C@@H](Cc4ccsc4)C(=O)N[C@@H](Cc4csc5ccccc45)C(=O)N[C@@H](C)C(N)=O)(C3)NC(=O)[C@H](CC(C)C)NC(=O)[C@H](Cc3ccccc3)NC(=O)[C@H](C)NC(=O)[C@H](CCS(C)(=O)=O)NC(=O)[C@H](Cc3cccc(C(=O)O)c3)NC(=O)[C@H](CC(=O)O)NC1=O)NC(=O)[C@H](CC(C)(C)C)NC(=O)[C@H](CC(=O)O)NC2=O (some centres unmarked)
4.93

Lab request: please report pIC50 under test system beta-catenin/TCF4 engagement (Homo sapiens, UniProt P35222) for CC(=O)N1CCC[C@]12CC=CCCCC1(CCCC=CCCCOC(=O)N3CC[C@@](C(=O)N[C@@H](Cc4ccccc4Cl)C(=O)N[C@@H](Cc4csc5ccccc45)C(=O)N[C@@H](CO)C(=O)N[C@H](CO)[C@@H](C)O)(C3)NC(=O)[C@H](CC(C)C)NC(=O)[C@H](Cc3ccccc3)NC(=O)[C@H](C)NC(=O)[C@H](C)NC(=O)[C@H](Cc3cccc(C(=O)O)c3)NC(=O)[C@H](CC(=O)O)NC1=O)NC(=O)[C@H](CC(C)(C)C)NC(=O)[C@H](CC(=O)O)NC2=O (some centres unmarked)
5.01

* * *

# target_under_test: beta-catenin/TCF4 engagement (Homo sapiens)
# Construct: expressed in transfected cells; host or cells: HEK293
# method_notes: Nano-BRET target engagement assay (B-cat-Halo & TCF4-Luc in HEK293 cells)
# Format: cell-based
# assay_setup: absolute IC50; read-out: NanoBRET Abs IC50
Provide the recorded pIC50 for the entries that follow.
Please express pIC50 as -log10 of the molar concentration.

So what's the measured pIC50 for this one? CC(=O)N1CCC[C@]12CC=CCCCC1(CCCC=CCCCOC(=O)N3CC[C@@](C(=O)N[C@@H](Cc4ccsc4)C(=O)N[C@@H](Cc4csc5ccccc45)C(=O)N[C@@H](CCC(N)=O)C(N)=O)(C3)NC(=O)[C@H](CC(N)=O)NC(=O)[C@H](Cc3ccccc3)NC(=O)[C@H](C)NC(=O)[C@H](C)NC(=O)[C@H](CC(N)=O)NC(=O)[C@H](CC(N)=O)NC1=O)NC(=O)[C@H](CC(C)(C)C)NC(=O)[C@H](CC(=O)O)NC2=O (some centres unmarked) [I-1555]
4.53

So what's the measured pIC50 for this one? CC(=O)N1CCC[C@]12CC=CCCCC1(CCCC=CCCCOC(=O)N3CC[C@@](C(=O)N[C@@H](Cc4ccsc4)C(=O)N[C@@H](Cc4csc5ccccc45)C(=O)N[C@@H](CCC(N)=O)C(N)=O)(C3)NC(=O)[C@H](CCO)NC(=O)[C@H](Cc3ccccc3)NC(=O)[C@H](C)NC(=O)[C@H](C)NC(=O)[C@H](Cc3c[nH]cn3)NC(=O)[C@H](CC(=O)O)NC1=O)NC(=O)[C@H](CC(C)(C)C)NC(=O)[C@H](CC(=O)O)NC2=O (some centres unmarked) [I-1794]
4.42

All values here come from patent US20240116985A1.
